Molecular target: UniProt:P21554
Sequence (P21554 whole entry): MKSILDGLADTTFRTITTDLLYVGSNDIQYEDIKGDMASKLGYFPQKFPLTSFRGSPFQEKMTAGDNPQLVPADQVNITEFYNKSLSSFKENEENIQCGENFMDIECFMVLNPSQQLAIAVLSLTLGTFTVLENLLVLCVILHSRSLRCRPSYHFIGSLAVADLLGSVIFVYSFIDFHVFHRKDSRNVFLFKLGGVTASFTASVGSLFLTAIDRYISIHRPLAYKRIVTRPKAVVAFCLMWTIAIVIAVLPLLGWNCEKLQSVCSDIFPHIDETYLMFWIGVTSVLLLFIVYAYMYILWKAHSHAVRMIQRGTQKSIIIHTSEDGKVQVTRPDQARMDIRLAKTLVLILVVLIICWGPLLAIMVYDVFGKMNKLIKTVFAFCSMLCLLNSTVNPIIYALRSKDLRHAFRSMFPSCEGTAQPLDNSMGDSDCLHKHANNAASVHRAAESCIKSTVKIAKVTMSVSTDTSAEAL
quantity_name: AC50

query: Notebook: pull reported AC50 for UniProt:P21554, entry CC(=O)Nc1c(I)c(C(=O)N[C@H]2C(O)O[C@H](CO)[C@@H](O)[C@@H]2O)c(I)c(N(C)C(C)=O)c1I (stereo partly drawn) [METRIZAMIDE]
result: > 10 µM

query: Continue with CC(CCc1ccccc1)NC(C)C(O)c1ccc(O)cc1 (stereo not drawn) [NYLIDRIN]
result: > 10 µM

query: Continue with COc1ccc(C(CN(C)C)C2(O)CCCCC2)cc1 (stereo not drawn) [VENLAFAXINE]
result: 5.5 µM

query: Continue with CCN(CC)C(=O)C1CN2CCc3cc(OC)c(OC)cc3C2CC1OC(C)=O (stereo not drawn) [BENZQUINAMIDE]
result: > 10 µM

query: Continue with CN1C[C@H](C(=O)N[C@]2(C)O[C@@]3(O)[C@@H]4CCCN4C(=O)[C@H](Cc4ccccc4)N3C2=O)C[C@@H]2c3cccc4[nH]cc(c34)C[C@H]21 [DIHYDROERGOTAMINE]
result: > 10 µM

query: Continue with CC(C)(C)NCC(O)c1cc(Cl)c(N)c(Cl)c1 (stereo not drawn) [CLENBUTEROL]
result: > 30 µM

query: Continue with COC1=C(OC)C(=O)C(CCCCCCCCCCO)=C(C)C1=O [IDEBENONE]
result: > 10 µM

query: Continue with CC(NCCc1ccc(O)cc1)C(O)c1ccc(O)cc1 (stereo not drawn) [RITODRINE]
result: > 30 µM
